Hey, just so you know, these numbers are from patent US20150104459A1.

# TARGET ENTITY: recombinant soluble homotrimeric HA of A/duck/Yangzhou/02/2005 (H8N4) (Influenza A virus A/duck/Yangzhou/02/2005 (H8N4))
# ASSAY METHOD TEXT: HA microarray, BCC supernatant
# RECORDED CONDITIONS: remark: other sources report otherwise

BINDER: TCN-553 (5261_C18) (antibody, V domains shown) VH: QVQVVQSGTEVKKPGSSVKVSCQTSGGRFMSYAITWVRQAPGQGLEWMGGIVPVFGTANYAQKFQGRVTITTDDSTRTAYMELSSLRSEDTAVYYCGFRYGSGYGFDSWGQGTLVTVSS VL: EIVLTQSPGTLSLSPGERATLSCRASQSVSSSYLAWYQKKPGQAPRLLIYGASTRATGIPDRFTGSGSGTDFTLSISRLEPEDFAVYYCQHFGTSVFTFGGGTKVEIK
UNITS OF MEASURE: RLU
Trimeric HA Binding RLU: 28000

BINDER: TCN-540 (5060_F05) (antibody, V domains shown) VH: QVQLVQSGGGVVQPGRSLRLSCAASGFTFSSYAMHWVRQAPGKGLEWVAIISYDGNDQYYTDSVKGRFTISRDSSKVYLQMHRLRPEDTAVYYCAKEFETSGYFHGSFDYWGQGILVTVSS VL: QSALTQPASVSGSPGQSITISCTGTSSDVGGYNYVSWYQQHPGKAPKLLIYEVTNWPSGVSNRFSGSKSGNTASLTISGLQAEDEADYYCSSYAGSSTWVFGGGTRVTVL
UNITS OF MEASURE: RLU
Trimeric HA Binding RLU: 117

BINDER: TCN-538 (3206_O17) (antibody, V domains shown) VH: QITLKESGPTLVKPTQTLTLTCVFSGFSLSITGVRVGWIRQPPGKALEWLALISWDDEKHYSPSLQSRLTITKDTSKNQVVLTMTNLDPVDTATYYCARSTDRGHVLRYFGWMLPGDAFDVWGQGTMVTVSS VL: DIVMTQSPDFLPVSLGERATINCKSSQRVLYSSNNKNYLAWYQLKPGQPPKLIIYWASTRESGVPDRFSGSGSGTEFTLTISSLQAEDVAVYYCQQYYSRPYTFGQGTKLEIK
UNITS OF MEASURE: RLU
Trimeric HA Binding RLU: 6120
